# TARGET_OR_SYSTEM: EGFR del19/C797S (Homo sapiens, UniProt P00533, C797S/DEL746-750)
# Sequence (P00533 with tags, fused parts or gaps DEL746-750/C797S): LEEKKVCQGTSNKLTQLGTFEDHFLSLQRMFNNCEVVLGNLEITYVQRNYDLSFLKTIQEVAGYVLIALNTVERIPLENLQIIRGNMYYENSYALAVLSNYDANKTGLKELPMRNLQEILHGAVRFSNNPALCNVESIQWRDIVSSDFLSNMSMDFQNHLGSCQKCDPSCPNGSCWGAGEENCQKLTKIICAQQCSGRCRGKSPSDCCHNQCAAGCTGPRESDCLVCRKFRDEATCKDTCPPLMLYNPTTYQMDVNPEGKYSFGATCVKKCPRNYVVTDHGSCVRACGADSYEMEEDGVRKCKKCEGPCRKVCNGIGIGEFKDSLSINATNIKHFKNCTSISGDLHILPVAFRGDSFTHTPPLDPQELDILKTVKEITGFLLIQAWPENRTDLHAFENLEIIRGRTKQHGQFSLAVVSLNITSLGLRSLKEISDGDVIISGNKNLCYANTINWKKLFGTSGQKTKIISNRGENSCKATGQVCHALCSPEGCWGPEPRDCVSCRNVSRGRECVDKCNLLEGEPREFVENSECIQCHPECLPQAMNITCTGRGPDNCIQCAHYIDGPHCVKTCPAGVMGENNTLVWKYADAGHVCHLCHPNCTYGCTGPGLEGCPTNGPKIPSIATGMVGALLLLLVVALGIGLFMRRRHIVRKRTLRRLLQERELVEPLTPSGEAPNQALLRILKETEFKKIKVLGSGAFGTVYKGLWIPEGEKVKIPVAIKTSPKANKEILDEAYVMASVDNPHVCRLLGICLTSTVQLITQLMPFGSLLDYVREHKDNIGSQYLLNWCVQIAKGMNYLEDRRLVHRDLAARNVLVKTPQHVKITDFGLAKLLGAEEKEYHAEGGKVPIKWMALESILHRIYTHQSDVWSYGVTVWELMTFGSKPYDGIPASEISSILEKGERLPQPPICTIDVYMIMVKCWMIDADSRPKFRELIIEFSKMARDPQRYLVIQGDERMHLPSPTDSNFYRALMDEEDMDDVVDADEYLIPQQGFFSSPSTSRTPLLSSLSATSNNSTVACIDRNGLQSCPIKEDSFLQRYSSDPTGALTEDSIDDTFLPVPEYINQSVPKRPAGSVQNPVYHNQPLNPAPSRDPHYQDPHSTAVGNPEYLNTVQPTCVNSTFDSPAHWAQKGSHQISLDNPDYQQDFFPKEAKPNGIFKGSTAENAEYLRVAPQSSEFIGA
# PROTOCOL_DESCRIPTION: Biochemical EGFR kinase assay (Lance Ultra TR-FRET), double mutant del19/C797S
# ASSAY_SETUP: Km ATP; read-out: IC50 del19/C797S (nM) Km ATP
MEASURED_QUANTITY: IC50 (nM)

> print(dat)
                           structure.smiles  measured.quantity  measurement.unit  observed.result
1  Cn1ccc(-c2cnc(Nc3ccnc(-c4cnn(S(=O)(=O)C5CC5)c4)n3)cc2NCC2(CO)COC2)n1               IC50                nM              0.6
2  CN(C)CC[C@H]1CC[C@@H](Nc2cc(Nc3nc(-c4cnn(S(=O)(=O)C5CC5)c4)ncc3F)ncc2-c2ccn(C(F)F)n2)CC1               IC50                nM              0.6
3  CNC[C@H]1CC[C@H](CNc2cc(Nc3ccnc(-c4cnn(S(=O)(=O)C5CC5)c4)n3)ncc2-c2ccn(C(F)F)n2)CC1               IC50                nM              0.3

(a) O=C1CC[C@]2(CC[C@H](Nc3cc(Nc4ccnc(-c5cnn(S(=O)(=O)C6CC6)c5)n4)ncc3-c3ccn(C(F)F)n3)CC2)N1
(b) Cn1ccc(-c2cnc(Nc3ccnc(-c4cnn(S(=O)(=O)C5CC5)c4)n3)cc2N[C@H]2CC[C@]3(CCC(=O)N3)CC2)n1
Request: Lab note: check whether a or b shows the higher recorded IC50. To answer, give the label that identifies your chosen option.
Result: a

----------
# TARGET_OR_SYSTEM: EGFR L858R/C797S (Homo sapiens, UniProt P00533, C797S/L858R)
# Sequence (P00533 25-1210 C797S/L858R): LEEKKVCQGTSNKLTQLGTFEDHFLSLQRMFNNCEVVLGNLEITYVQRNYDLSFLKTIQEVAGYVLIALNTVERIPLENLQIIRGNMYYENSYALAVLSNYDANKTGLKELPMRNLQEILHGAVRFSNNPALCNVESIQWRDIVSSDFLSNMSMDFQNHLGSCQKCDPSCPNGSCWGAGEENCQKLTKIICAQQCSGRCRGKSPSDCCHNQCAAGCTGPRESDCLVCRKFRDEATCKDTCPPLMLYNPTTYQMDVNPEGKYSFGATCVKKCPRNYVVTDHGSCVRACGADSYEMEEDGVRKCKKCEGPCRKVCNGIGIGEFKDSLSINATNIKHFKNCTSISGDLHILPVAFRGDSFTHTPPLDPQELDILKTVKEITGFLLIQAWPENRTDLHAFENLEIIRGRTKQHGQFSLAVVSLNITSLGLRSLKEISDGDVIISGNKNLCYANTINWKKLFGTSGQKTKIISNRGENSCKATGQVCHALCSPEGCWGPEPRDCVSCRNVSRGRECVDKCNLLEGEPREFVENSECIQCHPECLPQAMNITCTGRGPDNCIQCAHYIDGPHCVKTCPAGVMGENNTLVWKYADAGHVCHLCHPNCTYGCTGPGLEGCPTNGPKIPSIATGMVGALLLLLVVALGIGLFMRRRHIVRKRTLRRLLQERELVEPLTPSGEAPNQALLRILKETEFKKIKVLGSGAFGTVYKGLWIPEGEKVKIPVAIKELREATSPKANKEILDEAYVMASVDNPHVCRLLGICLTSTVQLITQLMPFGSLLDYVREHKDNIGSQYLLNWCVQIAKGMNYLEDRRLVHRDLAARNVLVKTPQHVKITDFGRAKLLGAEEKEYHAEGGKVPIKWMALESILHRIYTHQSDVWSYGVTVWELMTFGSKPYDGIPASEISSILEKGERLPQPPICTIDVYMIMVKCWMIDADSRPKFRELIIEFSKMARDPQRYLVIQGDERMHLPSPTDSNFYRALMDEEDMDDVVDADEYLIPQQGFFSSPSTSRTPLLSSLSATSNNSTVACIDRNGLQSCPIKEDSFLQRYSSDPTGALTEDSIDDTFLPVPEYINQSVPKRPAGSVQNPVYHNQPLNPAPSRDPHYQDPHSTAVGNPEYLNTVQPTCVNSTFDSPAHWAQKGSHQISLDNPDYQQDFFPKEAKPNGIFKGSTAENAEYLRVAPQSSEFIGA
# PROTOCOL_DESCRIPTION: Biochemical EGFR kinase assay (Lance Ultra TR-FRET), double mutant L858R/C797S
# ASSAY_SETUP: Km ATP; read-out: IC50 L858R/C797S (nM) Km ATP
MEASURED_QUANTITY: IC50 (nM)

Use the examples below as a reference point.
> print(dat)
                                   compound  measured.quantity  observed.result
1  O=S(=O)(C1CC1)n1cc(-c2nccc(Nc3cc(NCC4CCCC(O)C4)c(-c4ccn(C(F)F)n4)cn3)n2)cn1 (stereo not shown)               IC50              1.9
2  CC1(C)CC(Nc2cc(Nc3ccnc(-c4cnn(S(=O)(=O)C5CC5)c4)n3)ncc2-c2ccn(C(F)F)n2)CCC1O (stereo not shown)               IC50               19

(a) CC1CC(Nc2cc(Nc3ccnc(-c4cnn(S(=O)(=O)C5CC5)c4)n3)ncc2-c2ccn(C(F)F)n2)CCC1O (stereo not shown)
(b) CN(C)C(=O)C[C@H]1CC[C@@H](Nc2cc(Nc3ccnc(-c4cnn(S(=O)(=O)C5CC5)c4)n3)ncc2-c2ccn(C(F)F)n2)CC1
(c) O=S(=O)(C1CC1)n1cc(-c2nccc(Nc3cc(OC4CCC(O)C4)c(-c4cnn(C(F)F)c4)cn3)n2)cn1 (stereo not shown)
(d) O=C1CC[C@]2(CC[C@H](Nc3cc(Nc4ccnc(-c5cnn(S(=O)(=O)C6CC6)c5)n4)ncc3-c3csc(C(F)(F)F)n3)CC2)N1
Request: Endpoint returns the given compounds ordered by ascending IC50. Submit the labels in the order that the ranking request calls for.
Result: b, d, c, a

(a) CC1(O)CCC(Nc2cc(Nc3ccnc(-c4cnn(C5CCCO5)c4)n3)ncc2-c2ccn(C(F)F)n2)CC1 (stereo not shown)
(b) Cn1nc(-c2cnc(Nc3ccnc(-c4cnn(S(=O)(=O)C5CC5)c4)n3)cc2N[C@H]2CC[C@@](C)(O)CC2)cc1C(C)(C)O
(c) COc1ccc(-c2nccc(Nc3cc(N[C@H]4CC[C@@](C)(O)CC4)c(-c4ccn(C(F)F)n4)cn3)n2)cn1
Request: Highest IC50 first, then in falling order down to the smallest. Submit the labels in the order that the ranking request calls for.
Result: c, a, b
(c: 884 nM, a: 42.7 nM, b: 0.3 nM)

----------
# TARGET_OR_SYSTEM: EGFR L858R/T790M/C797S (Homo sapiens, UniProt P00533, C797S/L858R/T790M)
# Sequence (P00533 25-1210 T790M/C797S/L858R): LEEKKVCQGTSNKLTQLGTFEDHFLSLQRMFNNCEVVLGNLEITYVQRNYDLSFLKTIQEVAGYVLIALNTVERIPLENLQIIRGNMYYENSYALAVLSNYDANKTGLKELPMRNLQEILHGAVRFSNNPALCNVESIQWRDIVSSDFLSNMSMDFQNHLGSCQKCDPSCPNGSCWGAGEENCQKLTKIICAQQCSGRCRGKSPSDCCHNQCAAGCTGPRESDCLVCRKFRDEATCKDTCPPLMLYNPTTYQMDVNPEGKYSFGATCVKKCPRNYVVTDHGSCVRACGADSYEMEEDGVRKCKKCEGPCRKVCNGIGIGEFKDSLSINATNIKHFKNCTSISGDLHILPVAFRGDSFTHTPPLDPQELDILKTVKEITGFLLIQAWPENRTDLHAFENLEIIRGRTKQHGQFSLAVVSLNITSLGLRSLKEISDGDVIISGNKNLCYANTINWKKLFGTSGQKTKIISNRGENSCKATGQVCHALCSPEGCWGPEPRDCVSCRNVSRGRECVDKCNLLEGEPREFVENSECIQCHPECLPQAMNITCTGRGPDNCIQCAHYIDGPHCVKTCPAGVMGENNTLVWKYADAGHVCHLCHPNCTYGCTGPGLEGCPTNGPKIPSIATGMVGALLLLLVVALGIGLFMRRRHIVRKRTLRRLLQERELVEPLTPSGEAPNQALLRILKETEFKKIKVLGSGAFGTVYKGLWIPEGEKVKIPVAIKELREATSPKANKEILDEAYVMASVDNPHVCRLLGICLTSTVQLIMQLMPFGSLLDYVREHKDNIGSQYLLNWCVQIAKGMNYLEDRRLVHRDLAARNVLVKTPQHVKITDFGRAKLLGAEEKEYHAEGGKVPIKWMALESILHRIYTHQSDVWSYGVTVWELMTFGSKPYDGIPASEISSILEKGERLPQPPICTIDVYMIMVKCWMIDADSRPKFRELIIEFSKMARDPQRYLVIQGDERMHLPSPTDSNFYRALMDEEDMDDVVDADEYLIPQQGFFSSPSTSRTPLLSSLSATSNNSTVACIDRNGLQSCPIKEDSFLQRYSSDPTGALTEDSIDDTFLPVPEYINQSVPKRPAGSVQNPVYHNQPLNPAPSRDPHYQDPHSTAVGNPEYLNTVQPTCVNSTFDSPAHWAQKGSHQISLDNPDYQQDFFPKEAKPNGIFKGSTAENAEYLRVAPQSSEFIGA
# PROTOCOL_DESCRIPTION: Biochemical EGFR kinase assay (Lance Ultra TR-FRET), triple mutant L858R/T790M/C797S
# ASSAY_SETUP: IC50 L858R/T790M/C797S (nM) 100 μM ATP, 100 μM ATP
MEASURED_QUANTITY: IC50 (nM)

Use the examples below as a reference point.
> print(dat)
                                   molecule  measured.quantity  measurement.unit  observed.result
1  C[C@]1(O)CC[C@@H](Nc2cc(Nc3ccnc(-c4cnn(S(=O)(=O)C5CC5)c4)n3)ncc2-c2cc3n(n2)CCCC3)CC1               IC50                nM              0.6
2  O=S(=O)(C1CC1)n1cc(-c2nccc(Nc3cc(N[C@H]4CC[C@@H](O)C4)c(-c4ccn(C(F)F)n4)cn3)n2)cn1               IC50                nM              0.9
3  O=S(=O)(C1CC1)n1cc(-c2nccc(Nc3cc(N[C@H]4CC[C@](O)(CO)CC4)c(-c4ccn(C(F)F)n4)cn3)n2)cn1               IC50                nM              0.2

(P) C[C@]1(O)CC[C@@H](Nc2cc(Nc3nc(-c4cnn(S(=O)(=O)C5CC5)c4)ncc3F)ncc2-c2ccn(C(F)F)n2)CC1
(Q) O=S(=O)(C1CC1)n1cc(-c2nccc(Nc3cc(NC4CCCC4O)c(-c4ccn(C(F)F)n4)cn3)n2)cn1 (stereo not shown)
Request: Among P and Q , whose measured IC50 is the smaller figure? To answer, give the label that identifies your chosen option.
Result: P
(P: 1 nM, Q: 7.7 nM)

----------
# TARGET_OR_SYSTEM: EGFR wildtype (WT) (Homo sapiens)
# Sequence (P00533 25-1210): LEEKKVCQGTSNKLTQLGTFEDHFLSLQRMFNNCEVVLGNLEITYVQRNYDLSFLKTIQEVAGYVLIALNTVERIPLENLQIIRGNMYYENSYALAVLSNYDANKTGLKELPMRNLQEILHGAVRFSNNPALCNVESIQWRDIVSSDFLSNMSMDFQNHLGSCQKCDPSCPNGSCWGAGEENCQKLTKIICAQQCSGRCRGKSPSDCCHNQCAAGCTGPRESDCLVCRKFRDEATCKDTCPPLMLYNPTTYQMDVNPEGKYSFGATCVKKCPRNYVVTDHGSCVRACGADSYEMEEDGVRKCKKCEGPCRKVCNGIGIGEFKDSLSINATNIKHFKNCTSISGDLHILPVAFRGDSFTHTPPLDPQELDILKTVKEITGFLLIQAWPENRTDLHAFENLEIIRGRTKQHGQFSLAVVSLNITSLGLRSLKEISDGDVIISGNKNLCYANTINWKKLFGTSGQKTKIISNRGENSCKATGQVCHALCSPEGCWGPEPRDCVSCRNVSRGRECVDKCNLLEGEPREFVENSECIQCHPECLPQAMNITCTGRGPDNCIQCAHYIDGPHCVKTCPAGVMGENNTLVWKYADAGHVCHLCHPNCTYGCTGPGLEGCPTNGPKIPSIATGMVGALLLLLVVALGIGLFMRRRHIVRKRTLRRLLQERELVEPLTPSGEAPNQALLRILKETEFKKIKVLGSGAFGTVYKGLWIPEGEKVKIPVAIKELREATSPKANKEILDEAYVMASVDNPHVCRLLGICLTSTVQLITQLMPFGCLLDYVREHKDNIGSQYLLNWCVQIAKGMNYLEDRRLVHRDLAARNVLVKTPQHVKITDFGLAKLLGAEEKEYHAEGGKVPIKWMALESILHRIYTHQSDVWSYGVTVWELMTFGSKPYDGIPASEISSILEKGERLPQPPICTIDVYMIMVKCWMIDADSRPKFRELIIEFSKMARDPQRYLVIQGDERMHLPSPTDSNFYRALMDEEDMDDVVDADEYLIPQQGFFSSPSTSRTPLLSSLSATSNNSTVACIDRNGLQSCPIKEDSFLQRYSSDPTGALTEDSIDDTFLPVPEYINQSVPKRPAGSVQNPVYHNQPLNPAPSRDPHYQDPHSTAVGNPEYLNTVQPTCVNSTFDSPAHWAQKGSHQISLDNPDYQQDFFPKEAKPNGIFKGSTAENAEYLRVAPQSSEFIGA
# PROTOCOL_DESCRIPTION: Biochemical EGFR kinase assay (Lance Ultra TR-FRET), wildtype
# ASSAY_SETUP: IC50 WT (nM) 100 μM ATP, 100 μM ATP
MEASURED_QUANTITY: IC50 (nM)

(P) CN(C)CCCn1ccc(-c2cnc(Nc3ccnc(-c4cnn(S(=O)(=O)C5CC5)c4)n3)cc2N[C@H]2CC[C@@H](CO)CC2)n1 [Example 296]
(Q) C[C@]1(O)CC[C@@H](Nc2cc(Nc3ccnc(-c4cnn(S(=O)(=O)C5CC5)c4)n3)ncc2-c2nc(C(F)F)cs2)CC1 [Example 122]
(R) O=S(=O)(C1CC1)n1cc(-c2nccc(Nc3cc(N[C@H]4CC[C@@H](CO)CC4)c(-c4ccn(C5CC5)n4)cn3)n2)cn1 [Example 297]
(S) Cn1ccc(-c2cnc(Nc3ccnc(-c4cnn(S(=O)(=O)C5CC5)c4)n3)cc2N[C@H]2CC[C@@H](CCO)CC2)n1 [Example 136]
Request: Falling order of IC50, please. Submit the labels in the order that the ranking request calls for.
Result: Q, R, S, P
(Q: 1420 nM, R: 582 nM, S: 321 nM, P: 48.8 nM)

----------
# TARGET_OR_SYSTEM: EGFR L858R/C797S (Homo sapiens, UniProt P00533, C797S/L858R)
# PROTOCOL_DESCRIPTION: Biochemical EGFR kinase assay (Lance Ultra TR-FRET), double mutant L858R/C797S
# ASSAY_SETUP: IC50 L858R/C797S (nM) 100 μM ATP, 100 μM ATP
MEASURED_QUANTITY: IC50 (nM)

> print(dat)
                                   compound  measured.quantity  observed.result
1  O=S(=O)(C1CC1)n1cc(-c2nccc(Nc3cc(NCC4CCC(NCCF)CC4)c(-c4ccn(C(F)F)n4)cn3)n2)cn1 (stereo not drawn) [Example 132]               IC50              2.3

(a) Cn1ccc(-c2cnc(Nc3ccnc(-c4cnn(S(=O)(=O)C5CC5)c4)n3)cc2NC[C@H]2C[C@H](CO)C2)n1 [Example 223]
(b) CNC[C@H]1CC[C@H](CNc2cc(Nc3ccnc(-c4cnn(S(=O)(=O)C5CC5)c4)n3)ncc2-c2ccn(C(F)F)n2)CC1 [Example 192]
(c) O=S(=O)(C1CC1)n1cc(-c2nccc(Nc3cc(NC4CCC5(CC4)CNC5)c(-c4ccn(C(F)F)n4)cn3)n2)cn1 [Example 27]
(d) CN(CC(F)F)C[C@H]1CC[C@@H](Nc2cc(Nc3ccnc(-c4cnn(S(=O)(=O)C5CC5)c4)n3)ncc2-c2ccn(C(F)F)n2)CC1 [Example 206]
(e) Cn1ccc(-c2cnc(Nc3ccnc(-c4cnn(S(=O)(=O)C5CC5)c4)n3)cc2NC2CCC(F)(CO)CC2)n1 (stereo not drawn) [Example 222]
Request: Endpoint returns the given compounds ordered by ascending IC50. Submit the labels in the order that the ranking request calls for.
Result: c, b, a, e, d
(c: 2.2 nM, b: 3.7 nM, a: 5.9 nM, e: 18.8 nM, d: 206 nM)
